Measured TGI, listed per entry for reference.
# System: OVCAR-3 ovarian
# testSummary: NCI tumour cell line growth inhibition, 48 h

compound | systemTested | TGI
Clc1ccc(C2ON=C(c3ccccc3)N2C23CC4CC(CC(C4)C2)C3)cc1Cl (stereo unspecified) | OVCAR-3 ovarian | > 10 µM
O=C1CC(c2ccccc2)NCCCCN2CC(CN1)C(C(O)c1ccccc1)C2=O (stereo unspecified) | OVCAR-3 ovarian | > 100 µM
NC(N)=NS(=O)(=O)c1ccc(NC(=O)c2cccn3c(=O)c4ccccc4nc23)cc1 | OVCAR-3 ovarian | > 100 µM
C[C@]12CCC(=O)C=C1CC[C@@H]1[C@@H]2CC[C@]2(C)C(=O)/C(=C/c3ccncc3)C[C@@H]12 | OVCAR-3 ovarian | 27.1 µM
CCN1C(=O)/C(=C\c2coc3ccccc3c2=O)SC1=S | OVCAR-3 ovarian | > 100 µM
O=C(/C=C/c1ccc[nH]1)c1ccccc1 | OVCAR-3 ovarian | > 100 µM
C=C(c1ccc(OC)c(/C=C/C(=O)c2cc(OC)c(OC)c(OC)c2)c1)c1cc(OC)c(OC)c(OC)c1 | OVCAR-3 ovarian | 3.18 µM
Cc1ccc([N+]2=NC(c3ccc([N+](=O)[O-])cc3)=NN(c3ccccc3)C2)cc1 | OVCAR-3 ovarian | > 100 µM
CO[C@H](C(=O)O[C@H]1C(=O)N2CCC3CCC1C32C)c1ccccc1 (stereo partly specified) | OVCAR-3 ovarian | > 100 µM
COC(=O)CCC(=O)Nc1cccc(C(F)(F)F)c1 | OVCAR-3 ovarian | > 100 µM
CC[C@]1(Cc2ccc(OC)c(OC)c2)C=[N+]([O-])O[C@H](OC2CCCCC2c2ccccc2)[C@@H]1OC(C)=O (stereo partly specified) | OVCAR-3 ovarian | > 100 µM
CCOC(=O)c1ccc(OCc2nc3cc(C(F)(F)F)ccc3nc2-c2ccccc2)cc1 | OVCAR-3 ovarian | > 100 µM
COCn1c(=O)n(C)c(=O)c2c1nc1c(c(=O)n(C)c(=O)n1COC)[n+]2[O-] | OVCAR-3 ovarian | 44.1 µM
Clc1cc2nc[nH]c2cc1Cl | OVCAR-3 ovarian | > 100 µM
N#Cc1c(N)n(C2OC(CO)C(O)C2O)c2ncnc(N)c12 (stereo unspecified) | OVCAR-3 ovarian | 0.156 µM
Nc1nc(=O)c2[nH]cnc2n1O | OVCAR-3 ovarian | > 100 µM
O=C1/C(=N/N=C(c2ccccc2)c2ccccc2)c2ccccc2-c2ccccc21 | OVCAR-3 ovarian | > 100 µM
Cc1ccc(N/C(=C(/C(Cl)=C(Cl)Cl)[N+](=O)[O-])n2nnc3ccccc32)cc1 | OVCAR-3 ovarian | 34.3 µM
O=C1C2c3[nH]c4ccccc4c3C3CCC(c4ccccc4)CC3C2C(=O)N1c1ccccc1 (stereo unspecified) | OVCAR-3 ovarian | > 100 µM
O=C(N/C(=C\NC1=NCCS1)C(=O)N1CSC[C@@H]1C(=O)O)c1ccccc1 | OVCAR-3 ovarian | > 100 µM
CSc1n[nH]c2c1c(C)nn2-c1ccccc1 | OVCAR-3 ovarian | > 100 µM
